# procedureDetails: qHTS of pediatric cancer cell lines to identify multiple opportunities for drug repurposing: Primary screen for SK-N-MC cells (AID 1347093); further: potency means the concentration at half of the fitted maximal effect
# conditionNotes: SK-N-MC viability, CellTiter-Glo luminescence, 48 h; series mostly up to 46 µM
Inconclusive results are not listed. The source made the active and inactive calls. The call rests on the fitted dose curve; in most records, active means well fitted cell-killing curve with a large enough effect; inconclusive means small, poorly fitted or top-dose-only effect; inactive means no such curve, though single readings can be large or run the other way.
reportedProperty: Potency

Consider the reported Potency for these compounds:
>>> valuemeasured("CCCc1nc2c(C)cc(-c3nc4ccccc4n3C)cc2n1Cc1ccc(-c2ccccc2C(=O)O)cc1")
"16.6 µM (active)"
>>> valuemeasured("CCN(CC)CCCC(C)Nc1ccnc2cc(Cl)ccc12 (stereo unspecified)")
"0.0372 µM (active)"
>>> valuemeasured("CCc1cncnc1N1CCN(Cc2nc3ccc(C(F)(F)F)cc3[nH]2)CC1")
"23.5 µM (active)"
>>> valuemeasured("Cc1c(CCOc2ccc(C(=O)O)cc2)c2cc(Cl)ccc2n1C(c1ccccc1)c1ccccc1")
"14.8 µM (active)"

Find the measured Potency of NC(=O)c1ccc(-c2nc(-c3ccc4c(c3)OCCO4)c(-c3ccccn3)[nH]2)cc1 and report it.
inactive

Specify reported Potency for the compound shown: CCOc1cc(C=C2C(=O)N(c3ccccc3)N=C2C)cc(Cl)c1OCC(=O)OC
11.8 µM (active)

Please supply the value of reported Potency for the item CCN(c1ccccc1)c1cc(NC)[n+](C)c(C)n1
inactive

// Input: CC[C@H](Nc1ncnc2nc[nH]c12)c1nc2cccc(F)c2c(=O)n1-c1ccccc1 . Output its Potency only.
0.935 µM (active)

Consider the compound CCCS(=O)(=O)Nc1ccc(F)c(C(=O)c2c[nH]c3ncc(Cl)cc23)c1F . State its measured Potency.
4.18 µM (active)

Could you please provide reported Potency for C[C@]12CCC(=O)C=C1CC[C@@H]1[C@@H]2[C@@H](O)C[C@@]2(C)[C@H]1CC[C@]2(O)C(=O)CO ? Thanks!
inactive

Quote Potency reported for CCn1c(-c2nonc2N)nc2cnc(Oc3cccc(NC(=O)c4ccc(OCCN5CCOCC5)cc4)c3)cc21 please.
7.43 µM (active)

Specify measured Potency for OCCC#Cc1nc(-c2ccc(F)cc2)c(-c2ccncc2)n1CCCc1ccccc1 .
18.7 µM (active)

Name the recorded Potency of the compound listed here: Clc1ccc(Nc2nnc(Cc3ccncc3)c3ccccc23)cc1
2.35 µM (active)

Identify measured Potency associated with CCOC(=O)N[C@@H]1CC[C@@H]2[C@@H](C1)C[C@H]1C(=O)O[C@H](C)[C@H]1[C@@H]2C=Cc1ccc(-c2cccc(F)c2)cn1
16.6 µM (active)

Please give measured Potency of the following entry: CCC(C)(C)C(=O)O[C@H]1C[C@@H](C)C=C2C=C[C@H](C)[C@H](CC[C@@H]3C[C@@H](O)CC(=O)O3)[C@H]21
33.2 µM (active)

Using known records, supply Potency for OC[C@H](Cc1ccccc1)Nc1nc(Oc2ccc3c(c2)CCC3)nc2c1ncn2Cc1ccc(-c2ccccc2)cc1
1.87 µM (active)
